B1: PBXIP1 (parent)
chain: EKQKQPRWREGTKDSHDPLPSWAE

Variants of: B1
assay explanation: protein stability index of a GFP-peptide fusion (GPS, HEK-293T) (PSI 1-6); higher = more stable;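 further: lentivirally expressed fusions sorted by FACS into six bins by GFP to DsRed ratio, PSI derived from sequencing read proportions per bin multiplied by bin number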
condition info: c terminus: a fixed tail appended
In this section, each of the variants is paired with its reported protein stability index.
Write no unit; give the number alone.

Before answering, review these 5 worked examples.
{"mutant designation": "Q5C", "protein stability index": 3.72}
{"mutant designation": "P20A", "protein stability index": 2.13}
{"mutant designation": "Q3C", "protein stability index": 2.21}
{"mutant designation": "K13V", "protein stability index": 1.52}
{"mutant designation": "K4I", "protein stability index": 3.8}

Query: What does the data say about its protein stability index? Entry: P18V
Response: 3.04

Query: Lookup W8Y
Response: 1.94

Query: Lookup W22A
Response: 5.8

Query: Lookup T12E
Response: 1.61

Query: Lookup E10F
Response: 2.27
